# Tested on: HT29 colon
# run description: NCI tumour cell line growth inhibition, 384-well format; in the data active = GI50 below about 0.43 µM; inactive = the rest
Outcomes: 1 (active), 0 (inactive)

CC(C)n1c(=O)n(C)c2cnc3cc(F)c(-c4ccc(OCCCN5CCCCC5)nc4)cc3c21: 0
COc1nc(N)nc2c1ncn2[C@@H]1O[C@H](CO)[C@@H](O)[C@@H]1O: 0
CS(=O)(=O)c1ccc(Oc2cc(F)cc(C#N)c2)c2c1[C@H](O)C(F)(F)C2: 0
COc1ccc(-c2nc(N3CCOCC3)c3sc(CN(C)c4ncc(C(=O)NO)cn4)cc3n2)cn1: 1

----------
# Tested on: HCT-15 colon
# run description: NCI tumour cell line growth inhibition, 384-well format
readout type: TGI

COc1nc(N)nc2c1ncn2[C@@H]1O[C@H](CO)[C@@H](O)[C@@H]1O: > 100 µM
CCN(CC)CCCCNc1ncc2cc(-c3cc(OC)cc(OC)c3)c(NC(=O)NC(C)(C)C)nc2n1: 11.6 µM
OCC1OC(n2cnc3c2NC=NC[C@H]3O)CC1O (some centres undefined): > 100 µM
CS(=O)(=O)c1ccc(Oc2cc(F)cc(C#N)c2)c2c1[C@H](O)C(F)(F)C2: > 100 µM
